Test system: A549
Test: Antiproliferative against human A549 cells expressing MTAP clone 2 assessed as […] treated for 7 days with replenishment of medium for every 48 hrs by MTT assay (reference value: 4.4 uM)
Assay type: functional, cell-based

[
  {
    "smiles representation": "CC(C)Oc1ccc(-c2c[nH]cc2CN(C)CCN)cc1",
    "IC50": "13.4 µM"
  }
]

* * *

Tested on: SK-LU-1
Experiment: Antiproliferative against human SK-LU-1 cells expressing MTAP clone 1 assessed as […] treated for 7 days with replenishment of medium for every 48 hrs by MTT assay (reference value: 16.3 uM)
Format: functional, cell-based
result type: IC50 (µM)

[
  {
    "smiles representation": "CC(C)Oc1ccc(-c2c[nH]cc2CN(C)CCN)cc1",
    "units label": "µM",
    "number": 36.7
  }
]
